Reference source: ChEMBL document CHEMBL1201862

Tested on: HCT-116
Assay: NCI tumour cell line growth inhibition, 48 h
Active and inactive are the calls of the source. No stated cut-off is given here; in the data, active = GI50 up to about 1.1 µM and inactive = higher.
property: GI50

[[record]]
compound = "O=C1C=CC(=O)c2c(Cl)ccc(O)c21"
tested_target = "HCT-116"
property = "GI50"
result = "9.79 µM (inactive)"


-- ask Entry `O=c1oc2ccccc2cc1/C=N/N1C(=S)N(c2ccccc2)C(=N\c2ccccc2)/C1=N/c1ccccc1` has what GI50?
-- reply 41.4 µM (inactive)

-- ask Entry CCC(C)C(=O)OCC(=O)c1ccc(-c2ccccc2)cc1 (configuration not stated) has what GI50?
-- reply 68.7 µM (inactive)

-- ask Entry CCC1OCCN1C(C)C (configuration not stated) has what GI50?
-- reply 89.9 µM (inactive)

-- ask Entry `CC(=O)OCc1c(C)c2ccccc2n1C(C)=O` has what GI50?
-- reply 44.5 µM (inactive)

-- ask Entry `Cc1ccc(/C=C/C(=O)c2c([O-])on[n+]2-c2ccccc2)cc1` has what GI50?
-- reply 1.84 µM (inactive)

-- ask Entry `CCn1c(-c2ccccc2)nc2c1C(=O)c1ccccc1C2=O` has what GI50?
-- reply 21.7 µM (inactive)
